Origin of the recorded values: PubChem BioAssay (NCI)

Exercise: state measured GI50 for each of the compounds provided.

Query block: What value of GI50 on MDA-MB-435 does COc1cc(/C=C2\CC3C4CC=C5C[C@@H](O)CC[C@]5(C)C4CC[C@]3(C)C2=O)ccc1OCCCn1ccnc1 (stereo partly drawn) have?
Result block: 16.8 µM

Query block: What value of GI50 on MDA-MB-435 does CC[C@@]12C=CCN3CC[C@]4(c5cc(NC(=O)COc6cc(OCC(=O)Nc7cc8c(cc7OC)N(C)[C@H]7[C@@](O)(C(=O)OC)[C@H](OC(C)=O)[C@]9(CC)C=CCN%10CC[C@]87[C@@H]%109)cc7oc(-c8ccccc8)cc(=O)c67)c(OC)cc5N(C)[C@@H]4[C@](O)(C(=O)OC)[C@H]1OC(C)=O)[C@H]32 have?
Result block: 17.7 µM

Query block: What value of GI50 on MDA-MB-435 does COc1cc2c(c(OC)c1OC)-c1ccc(O)c(=O)cc1[C@@H](NC(C)=O)CC2 have?
Result block: 14.3 µM
